B1: Zinc finger homeobox protein 4, residues 2183 to 2238; numbered along this chain, Q86UP3 (parent)
chain: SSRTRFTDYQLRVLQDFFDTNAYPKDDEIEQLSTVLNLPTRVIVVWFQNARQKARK

# Variants of: B1
# procedure.text: abundance fitness (aPCA) (normalised: wild type 0, dead -1); higher = more abundant; growth selection in yeast, the domain comes from the species named
# test.parameters: Homo sapiens
Each record gets a class by abundance fitness: group 1 (below -0.4), group 2 (-0.4 to below -0.2), group 3 (-0.2 or more)

# variant.key, group
data = [
    ("N21F", "group 1"),
    ("T7H", "group 1"),
    ("Y23R", "group 3"),
    ("E28I", "group 1"),
]

Which band does N21P fall in?
group 1

Hello, the source for this data is the Human Domainome abundance scans (Beltran et al. 2025), in case you need it.
